Source of measurements: PubChem BioAssay (Tox21)

assay: qHTS RealTime-Glo MT Cell Viability Assay in HEK293 cells - 8 hour (AID 1224887); settings: RealTime-Glo luminescence; series mostly up to 76.8 µM; also: nearly all actives have a fitted effect of over 50% in size
Records with an inconclusive call do not appear. The source made the active and inactive calls. Calls follow the shape of the dose curve; as a rule, active = well fitted cell-killing curve with a large enough effect in the repeat runs; inconclusive = weak or mixed curves, or effect the other way; inactive = flat fitted curve, though single readings scatter.
Your reply should match one of these outcome classes. y = active, n = inactive

Recorded results for 4 compounds are shown here.
CNCCCC12CCC(c3ccccc31)c1ccccc12 : n
c1ccc2sc(SSN3CCOCC3)nc2c1 : y
COc1c(Cl)c(Cl)c(Cl)c(Cl)c1Cl : n
c1ccc2cc(Nc3ccc(Nc4ccc5ccccc5c4)cc3)ccc2c1 : n

Hi, sorry to bother you, what did the test record for `COC(=O)CCC(=O)OC` ?
n

What do you get for CCC(C)c1ccccc1O (centres undefined) ?
n

What do you get for `C/C=C/C(=O)O` ?
n
